Please respond with reported Kd for every item in the list.
measurement target: Fibroblast activation protein (FAP), recombinant human, carrier-free (BioLegend) (Homo sapiens) (UniProt Q12884)
Sequence (Q12884 whole entry): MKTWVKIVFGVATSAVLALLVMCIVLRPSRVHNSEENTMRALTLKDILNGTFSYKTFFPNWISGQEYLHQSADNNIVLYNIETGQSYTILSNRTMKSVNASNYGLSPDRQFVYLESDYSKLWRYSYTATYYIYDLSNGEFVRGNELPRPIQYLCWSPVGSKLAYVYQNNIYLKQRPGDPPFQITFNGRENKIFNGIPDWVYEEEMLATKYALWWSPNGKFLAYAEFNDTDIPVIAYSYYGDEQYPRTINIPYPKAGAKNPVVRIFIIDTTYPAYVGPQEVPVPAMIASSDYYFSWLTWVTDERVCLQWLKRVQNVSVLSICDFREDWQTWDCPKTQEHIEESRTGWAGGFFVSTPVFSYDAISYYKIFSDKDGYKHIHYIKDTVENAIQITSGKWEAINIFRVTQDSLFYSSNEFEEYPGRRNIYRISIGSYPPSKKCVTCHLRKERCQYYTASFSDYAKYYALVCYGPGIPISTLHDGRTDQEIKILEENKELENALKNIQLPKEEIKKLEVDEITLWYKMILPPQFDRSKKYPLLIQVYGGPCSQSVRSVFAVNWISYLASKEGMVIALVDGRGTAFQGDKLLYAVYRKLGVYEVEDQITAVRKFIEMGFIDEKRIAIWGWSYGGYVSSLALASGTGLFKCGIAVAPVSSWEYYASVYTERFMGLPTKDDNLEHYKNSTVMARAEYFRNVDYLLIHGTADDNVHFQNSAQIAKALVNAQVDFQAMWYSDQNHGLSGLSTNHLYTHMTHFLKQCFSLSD
experiment description: CE-LIF (NECEEM)
condition parameters: CE-LIF/NECEEM: buffer for Kd not stated, CE separation (SELEX) 20 kV, 25 C; specificity: 10 min at 37 C, PBS pH 7.2 as control; AuNP assay: room temperature …
Write it as a number; the unit nM goes unstated.

Sample AGCAGCACAGAGGTCAGATGCCGCAGGCAGCTGCCATTAGTCTCTATCCGTGACGGTATGCCTATGCGTGCTACCGTGAA [AptFAP-A4] ; Kd observed: 500

Sample AGCAGCACAGAGGTCAGATGGCGAAGCGTACCGGCTACCCAGTGACAGTCGCCGTGGGTCCCTATGCGTGCTACCGTGAA [AptFAP-A1] ; Kd observed: 500
